Recorded values, source PubChem BioAssay AID256.

system: CD2F1 mice, L1210 leukemia ip, survival T/C; test: NCI In Vivo Anticancer Drug Screen. Data for tumor model L1210 Leukemia (intraperitoneal) in CD2F1 (CDF1) mice; details: endpoint: mean survival time; dose: 200.0 mg/kg/injection; schedule: Q04DX002 (ip); vehicle: saline; higher = longer survival
Toxic doses and inconclusive results are not listed.
ATTRIBUTE MEASURED: T/C

OC(Cc1ccccn1)C(Cl)(Cl)Cl (centres undefined) : 94 % of control
Cn1cccnc1=O : 95 % of control
[Co].[NH-]CC[NH-].[NH-]CC[NH-].[NH-]CC[S-] : 101 % of control
CCCCN=C(Cl)C(Cl)(c1ccccc1)c1ccccc1 : 103 % of control
COc1ccccc1N1CCCSC1=Nc1ccccc1 : 94 % of control
CN1CC(=O)n2c(cc3ccccc32)C1=O : 93 % of control

Prompt: Quick one: give measured T/C for OC(O)(C(F)(F)F)C(F)(F)F
Response: 109 % of control

Prompt: Quick one: give measured T/C for [Cl][Mo]([Cl])([Cl])[Cl].[Cl][Mo]([Cl])([Cl])[Cl]
Response: 87 % of control

Prompt: Quick one: give measured T/C for COC1OCCC(C)O1 (centres undefined)
Response: 104 % of control

###

test system: CD2F1 mice, L1210 leukemia ip, survival T/C; assay: NCI In Vivo Anticancer Drug Screen. Data for tumor model L1210 Leukemia (intraperitoneal) in CD2F1 (CDF1) mice; conditions: endpoint: mean survival time; dose: 200.0 mg/kg/injection; schedule: Q04DX002 (ip); vehicle: saline with Tween-80; higher = longer survival
Inconclusive results and toxic doses are left out.
compounds and their reported T/C

Prompt: Quick one: give measured T/C for COC(=O)C1=C(O)C(C(=O)OC)C2/C(=[N+](/[O-])O)c3c(cc([N+](=O)[O-])cc3[N+](=O)[O-])C1C2[N+](=O)[O-] (stereo not given)
Response: 105 % of control

Prompt: Quick one: give measured T/C for CCNC(=O)OC(C)C
Response: 102 % of control

Prompt: Quick one: give measured T/C for CC1=CCC(=O)O1
Response: 98 % of control

Prompt: Quick one: give measured T/C for O=[N+]([O-])c1cccc(S(=O)(=O)N2CCCCC2)c1
Response: 95 % of control

Prompt: Quick one: give measured T/C for CNC(=S)SCCC(=O)O
Response: 102 % of control

###

molecules and their reported T/C
Tested on: CD2F1 mice, L1210 leukemia ip, survival T/C
Assay: NCI In Vivo Anticancer Drug Screen. Data for tumor model L1210 Leukemia (intraperitoneal) in CD2F1 (CDF1) mice
Settings: endpoint: mean survival time; dose: 50.0 mg/kg/injection; schedule: Q01DX009 (ip); vehicle: saline; higher = longer survival
Protocol: The antitumor activity of compounds was measured in mice bearing transplantable tumors. Survival or tumor size were measured and the results are expressed as the measurement made in the treated group (T) divided by the measurement made in the vehicle treated control group (C). The tumor model used in this assay is L1210 Leukemia (intraperitoneal) in CD2F1 (CDF1) mice
Toxic doses and inconclusive results are not listed.

Record excerpt, results attached:
COc1ccc(/C(C#N)=C2\OC(=O)c3ccccc32)cc1OC : 93 % of control
Cc1cc2nc3c(=O)[nH]c(=O)nc-3n(CC(O)C(O)C(O)C(O)CO)c2cc1C (stereo not drawn) : 93 % of control
COc1ccc(OCCC(=O)O)cc1 : 119 % of control

Prompt: Quick one: give measured T/C for OCC1(CO)COC2(CCCCC2)N1
Response: 98 % of control

Prompt: Quick one: give measured T/C for CNc1nc2c(N)ncnc2n1C1OC(CO)C(O)C1O (stereo not drawn)
Response: 102 % of control

Prompt: Quick one: give measured T/C for CCCC1OC(C)CC(C)(C)O1 (stereo not drawn)
Response: 94 % of control

Prompt: Quick one: give measured T/C for CC(=O)NC(C=O)CC(C=O)CO (stereo not drawn)
Response: 103 % of control

Prompt: Quick one: give measured T/C for CS(=O)(=O)OCCCN(CCCOS(C)(=O)=O)CCCN1CCOCC1
Response: 180 % of control

Prompt: Quick one: give measured T/C for N/C(=N\O)c1cn(C2OC(CO)C(O)C2O)c2ncncc12 (stereo not drawn)
Response: 168 % of control

Prompt: Quick one: give measured T/C for Clc1ccc2scc3c4ccccc4nc-3c2c1
Response: 101 % of control

Prompt: Quick one: give measured T/C for CC(CC(=O)Nc1ccc(S(=O)(=O)F)cc1)c1ccc(N2C(N)=NC(N)=NC2(C)C)cc1 (stereo not drawn)
Response: 113 % of control

Prompt: Quick one: give measured T/C for Nc1nc(N)nc(-c2ccccn2)n1
Response: 112 % of control

Prompt: Quick one: give measured T/C for CCOC(=O)C(C)C(=O)O (stereo not drawn)
Response: 97 % of control
